# EXPERIMENTAL_PROTOCOL: SK-BR-3 cell growth inhibitors, pilot screen, 24 h, human (AID 572);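 also: compound exposure lasted between 18 and 24 h rather than exactly 24 h; 100% = carrier-treated control wells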
# PROTOCOL_CONDITIONS: SK-BR-3 viability, CellTiter-Glo luminescence, at 10 µM, stronger effect = lower value
Documented viability across a set of molecules

- MOLECULE: "CCC1C(=O)n2nc(-c3ccccc3)cc2N=C1C (configuration not stated)"
  VALUE_UNIT: "%"
  viability: 106
- MOLECULE: "CC(=O)Oc1ccc(-c2ccc(C(=O)O)cc2)cc1"
  VALUE_UNIT: "%"
  viability: 87
- MOLECULE: "CNC(=O)CSc1nnc(-c2cccc(S(=O)(=O)N3CCOCC3)c2)n1-c1ccc(F)cc1"
  VALUE_UNIT: "%"
  viability: 78.5
- MOLECULE: "COc1ccc(S(=O)(=O)n2ccnc2)c2cccnc12"
  VALUE_UNIT: "%"
  viability: 94.5
- MOLECULE: "COc1ccccc1OCC(=O)Nc1cccc(-c2nc3ccccc3o2)c1"
  VALUE_UNIT: "%"
  viability: 104
- MOLECULE: "O=C(CCN1CCN(c2ccc(F)cc2)CC1)Nc1ccccc1F"
  VALUE_UNIT: "%"
  viability: 91.5
- MOLECULE: "CCCCc1n[nH]c2c1C(=O)CC(C)(C)C2"
  VALUE_UNIT: "%"
  viability: 73.5
- MOLECULE: "COc1ccccc1Nc1nc2ccccc2[nH]1"
  VALUE_UNIT: "%"
  viability: 92
- MOLECULE: "CCCc1cc(C(N)=O)c(NC(=O)c2ccco2)s1"
  VALUE_UNIT: "%"
  viability: 102
- MOLECULE: "CCNC(=O)c1ccc(NS(=O)(=O)c2ccccc2)cc1"
  VALUE_UNIT: "%"
  viability: 124
- MOLECULE: "CCN(CC(=O)Nc1ccc(S(N)(=O)=O)cc1)S(=O)(=O)c1cc(C)ccc1OC"
  VALUE_UNIT: "%"
  viability: 76.5
- MOLECULE: "Cn1c2ccccc2c2ncn(CCCN3CCOCC3)c(=O)c21"
  VALUE_UNIT: "%"
  viability: 89
- MOLECULE: "Cc1ccc(Nc2nc(CSc3nnnn3C)cs2)cc1"
  VALUE_UNIT: "%"
  viability: 101
- MOLECULE: "O=C(Nc1ccc(N2CCOCC2)cc1)c1cc2ccccc2o1"
  VALUE_UNIT: "%"
  viability: 99.5
- MOLECULE: "COc1cccc(CNC(=O)C2CCN(S(=O)(=O)c3ccc(F)cc3)CC2)c1"
  VALUE_UNIT: "%"
  viability: 128
- MOLECULE: "O=C(CCN1C(=O)c2ccccc2C1=O)OCN1C(=O)c2ccccc2C1=O"
  VALUE_UNIT: "%"
  viability: 95
- MOLECULE: "CC(C)CCN1CC(C(=O)NCc2ccccc2)CC1=O (configuration not stated)"
  VALUE_UNIT: "%"
  viability: 88.5
